target under test: Leucine aminopeptidase (Plasmodium falciparum (isolate 3D7))
test protocol: P. falciparum M17LAP inhibitors, primary screen, biochemical, fluorogenic H-Leu-NHMec substrate, 1536-well (AID 1619);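 note: plate controls were full reaction with DMSO carrier for no effect and no enzyme background for full effect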
condition info: recombinant M17LAP, H-Leu-NHMec fluorogenic kinetic assay; at 30 µM; active compounds read high
The whole screen tested about 220,000 compounds, of which about 830 (0.38%) were called active. Only a sample is shown. Results with a measured potency or affinity are listed apart.
value kind: inhibition (%)

- compound: "O=C(O)C12CC3CC(C1)CC(n1ncc(NCc4ccco4)c(Cl)c1=O)(C3)C2"
  unit info: "%"
  experimental value: 1.68
- compound: "Cn1c(SCC(=O)c2ccc3c(c2)OCO3)nnc1C1COc2ccccc2O1 (stereo unspecified)"
  unit info: "%"
  experimental value: 10.4
- compound: "CCN(CC)S(=O)(=O)c1ccc(N)cc1"
  unit info: "%"
  experimental value: 11.4
- compound: "O=C(O)Cc1ccc(Nc2cnn(C34CC5CC(CC(CC(=O)O)(C5)C3)C4)c(=O)c2Cl)cc1"
  unit info: "%"
  experimental value: 23.1
- compound: "Cc1ccc(S(=O)(=O)N2CCOCC2)cc1NC(=O)CN1CCN(c2ccc(O)cc2)CC1"
  unit info: "%"
  experimental value: -10.2
- compound: "CC1SCC(=O)N(CC(=O)Nc2ccc3c(c2)OCCO3)C1=O (stereo unspecified)"
  unit info: "%"
  experimental value: 2.2
- compound: "O=C(O)CC12CC3CC(C1)CC(n1ncc(NCc4ccccc4Cl)c(Cl)c1=O)(C3)C2"
  unit info: "%"
  experimental value: 23.6
- compound: "O=C(O)c1ccccc1Nc1ccc(OC(F)F)cc1"
  unit info: "%"
  experimental value: 18.9
- compound: "O=C(CN1C(=O)CSCC1=O)NCc1ccc(F)cc1"
  unit info: "%"
  experimental value: 18.6
- compound: "CN(O)/C=C/C(=O)c1ccc(Br)cc1"
  unit info: "%"
  experimental value: -3.22
- compound: "COc1cc(/C=C2/NC(=O)N(Cc3ccccc3F)C2=O)ccc1Oc1ccc([N+](=O)[O-])cn1"
  unit info: "%"
  experimental value: -10.8
- compound: "COc1ccc(NC(=S)NNc2ccc([N+](=O)[O-])cc2S(=O)(=O)Nc2ccc(C)cc2C)cc1"
  unit info: "%"
  experimental value: 4.17
- compound: "COc1ccc(NC(=O)CN2C(=O)C(C)SC(C)C2=O)c(OC)c1 (stereo unspecified)"
  unit info: "%"
  experimental value: 26.5
- compound: "COc1ccc(S(=O)(=O)N(CC(=O)N/N=C/c2cccs2)c2cc(C)cc(C)c2)cc1OC"
  unit info: "%"
  experimental value: -9.62
- compound: "O=c1c(Cl)c(NCc2ccccc2)cnn1C12CC3CC(CC(C3)C1)C2"
  unit info: "%"
  experimental value: -15.7
- compound: "Cn1c2c(c(=O)n3ncnc13)CCCC2"
  unit info: "%"
  experimental value: -2.57
- compound: "O=C(Nc1ccccc1C(=O)N1CCOCC1)C1CCCO1 (stereo unspecified)"
  unit info: "%"
  experimental value: -7.06
- compound: "COc1ccc(NC(=O)c2ccccc2NS(=O)(=O)c2ccc(C)cc2)c([N+](=O)[O-])c1"
  unit info: "%"
  experimental value: 2.55
- compound: "Cc1cccc(-n2c(CNC(=O)c3ccc(S(=O)(=O)N(C)C)cc3)nnc2SCC(=O)Nc2ccc(F)cc2)c1"
  unit info: "%"
  experimental value: -5.07
- compound: "Cc1ccc(S(=O)(=O)/N=C(\\N)Nc2nc(C)c3cc(C)c(C)cc3n2)cc1"
  unit info: "%"
  experimental value: 6.15
- compound: "Cc1noc(C)c1C1(O)CCCCCCCCCCC1"
  unit info: "%"
  experimental value: 0.02
